Molecular target: MAP3K7 TAB1 (human) (UniProt Q15750+O43318)
Sequence (O43318 whole entry, looked up): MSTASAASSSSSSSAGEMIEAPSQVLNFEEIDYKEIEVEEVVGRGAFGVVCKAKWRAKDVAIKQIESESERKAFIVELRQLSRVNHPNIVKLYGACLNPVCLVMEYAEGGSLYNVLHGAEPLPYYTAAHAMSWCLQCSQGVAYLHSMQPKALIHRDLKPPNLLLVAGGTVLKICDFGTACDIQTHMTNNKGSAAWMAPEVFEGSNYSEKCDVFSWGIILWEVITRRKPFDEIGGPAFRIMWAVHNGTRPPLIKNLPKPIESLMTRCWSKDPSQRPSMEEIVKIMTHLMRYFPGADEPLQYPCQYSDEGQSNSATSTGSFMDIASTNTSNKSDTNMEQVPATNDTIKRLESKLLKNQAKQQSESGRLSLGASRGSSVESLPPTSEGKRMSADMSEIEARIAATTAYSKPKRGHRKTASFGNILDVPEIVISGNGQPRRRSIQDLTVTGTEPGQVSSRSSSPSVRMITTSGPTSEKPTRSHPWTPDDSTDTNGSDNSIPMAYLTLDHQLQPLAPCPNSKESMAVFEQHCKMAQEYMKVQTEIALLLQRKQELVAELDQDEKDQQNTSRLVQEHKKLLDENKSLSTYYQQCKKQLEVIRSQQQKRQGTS
Sequence (Q15750 whole entry, looked up): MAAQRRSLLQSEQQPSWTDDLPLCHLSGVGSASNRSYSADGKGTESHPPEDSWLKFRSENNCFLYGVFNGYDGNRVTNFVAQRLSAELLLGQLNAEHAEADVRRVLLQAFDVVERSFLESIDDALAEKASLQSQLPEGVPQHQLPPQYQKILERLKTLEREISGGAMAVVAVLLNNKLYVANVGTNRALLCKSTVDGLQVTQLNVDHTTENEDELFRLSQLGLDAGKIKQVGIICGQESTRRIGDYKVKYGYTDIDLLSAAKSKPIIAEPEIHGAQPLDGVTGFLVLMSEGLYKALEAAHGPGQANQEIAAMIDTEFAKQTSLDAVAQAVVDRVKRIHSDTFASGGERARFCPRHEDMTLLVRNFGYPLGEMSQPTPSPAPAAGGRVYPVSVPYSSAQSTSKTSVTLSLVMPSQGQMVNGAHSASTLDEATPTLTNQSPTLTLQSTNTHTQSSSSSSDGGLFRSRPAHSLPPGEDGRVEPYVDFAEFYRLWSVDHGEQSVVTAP
Experiment: radiometric filter-binding kinase assay
Conditions: compound 1.0 µM
measure: residual activity (%)

*Q* Complete the entry with residual activity for CNc1nc(-c2ccc3c(N)n[nH]c3c2)cc(N2C[C@@H](C(=O)NC3CCCCC3)CC[C@H]2C)n1
*A* 99

P: O=C(NOCC(O)CO)c1ccc(F)c(F)c1Nc1ccc(I)cc1Cl (stereo not given)
Q: O=C(NCCCNc1nc(Nc2cccc(CN3CCOCC3)c2)ncc1C1CC1)C1CCC1
*Q* From the recorded data, which exceeds the other in residual activity: P or Q ? Respond with the label that goes with your answer.
*A* P
(P: 91%, Q: 57%)

----------
Biological target: HIPK2 (human) (UniProt Q9H2X6)
Sequence (Q9H2X6 whole entry, looked up): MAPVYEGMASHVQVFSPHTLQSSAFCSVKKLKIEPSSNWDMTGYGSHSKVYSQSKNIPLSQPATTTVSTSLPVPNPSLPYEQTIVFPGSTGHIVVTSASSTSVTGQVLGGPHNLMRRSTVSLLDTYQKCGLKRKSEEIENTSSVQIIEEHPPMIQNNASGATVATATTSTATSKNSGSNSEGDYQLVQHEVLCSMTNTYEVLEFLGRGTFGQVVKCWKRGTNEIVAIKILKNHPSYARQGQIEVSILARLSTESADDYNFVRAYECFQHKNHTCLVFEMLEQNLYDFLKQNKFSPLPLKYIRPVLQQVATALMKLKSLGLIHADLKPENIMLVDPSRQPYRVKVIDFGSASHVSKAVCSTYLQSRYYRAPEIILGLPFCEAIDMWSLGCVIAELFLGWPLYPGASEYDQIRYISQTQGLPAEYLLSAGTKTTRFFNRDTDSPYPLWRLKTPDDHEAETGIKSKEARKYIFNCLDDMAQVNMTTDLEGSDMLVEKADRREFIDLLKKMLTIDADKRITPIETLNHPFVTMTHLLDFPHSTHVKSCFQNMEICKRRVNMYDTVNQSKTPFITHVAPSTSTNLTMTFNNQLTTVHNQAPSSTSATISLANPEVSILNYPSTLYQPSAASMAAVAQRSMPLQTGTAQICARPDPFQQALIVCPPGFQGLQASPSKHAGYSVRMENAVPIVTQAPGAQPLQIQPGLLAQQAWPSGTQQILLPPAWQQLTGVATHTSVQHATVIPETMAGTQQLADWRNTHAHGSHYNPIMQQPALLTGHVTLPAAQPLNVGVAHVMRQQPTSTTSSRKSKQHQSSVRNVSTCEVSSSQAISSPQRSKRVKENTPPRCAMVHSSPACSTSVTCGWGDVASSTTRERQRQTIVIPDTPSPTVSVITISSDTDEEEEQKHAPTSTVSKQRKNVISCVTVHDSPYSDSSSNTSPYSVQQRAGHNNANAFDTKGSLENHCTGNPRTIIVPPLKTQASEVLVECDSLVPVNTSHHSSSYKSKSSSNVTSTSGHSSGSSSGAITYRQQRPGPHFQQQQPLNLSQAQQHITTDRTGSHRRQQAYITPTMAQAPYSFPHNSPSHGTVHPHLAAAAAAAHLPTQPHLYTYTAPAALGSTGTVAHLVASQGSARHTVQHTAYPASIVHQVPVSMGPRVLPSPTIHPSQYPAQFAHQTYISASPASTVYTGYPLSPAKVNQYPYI
Test: radiometric filter-binding kinase assay
Settings: compound 1.0 µM
measure: residual activity (%)

*Q* Would you please give the reported residual activity of Cc1cc(NC(=O)c2cccc(NC(=O)/C=C/CN(C)C)c2)ccc1Nc1nccc(-c2cccnc2)n1 with HIPK2 (human) (UniProt Q9H2X6)?
*A* 99

*Q* Would you please give the reported residual activity of Cn1c(=O)c2c(ncn2C)n(C)c1=O with HIPK2 (human) (UniProt Q9H2X6)?
*A* 112

*Q* Would you please give the reported residual activity of NC1(c2ccc(-c3nc4ccn5c(=O)[nH]nc5c4cc3-c3ccccc3)cc2)CCC1 with HIPK2 (human) (UniProt Q9H2X6)?
*A* 97

1: Cc1cccc(Nc2nn(C)c3ncnc(N)c23)c1
2: COc1ccc(-n2ncc3cnc(Nc4cc(OC)c(OC)c(OCCCN5CCN(C)CC5)c4)nc32)cc1
*Q* From the recorded data, which exceeds the other in residual activity: 1 or 2 ? Respond with the label that goes with your answer.
*A* 1

----------
Molecular target: DYRK3 (human)
Assay: radiometric filter-binding kinase assay
Conditions: compound 1.0 µM
measure: residual activity (%)

*Q* Complete the entry with residual activity for O=C(O)c1cc(N=Nc2ccc(S(=O)(=O)Nc3ccccn3)cc2)ccc1O
*A* 89

*Q* Complete the entry with residual activity for CCc1cncnc1N1CCN(Cc2nc3cc(C(F)(F)F)ccc3[nH]2)CC1
*A* 92

*Q* Complete the entry with residual activity for c1ccc2c(-c3cnn4cc(-c5ccc(N6CCNCC6)cc5)cnc34)ccnc2c1
*A* 89

*Q* Complete the entry with residual activity for Cn1nc(Nc2ccc(F)cc2)c2c(N)ncnc21
*A* 119

*Q* Complete the entry with residual activity for N#Cc1c(C2CCNCC2)cc(-c2c(O)cccc2OCC2CC2)nc1N
*A* 84

A: COc1cc(O)c2c(c1)/C=C/C[C@H](O)[C@H](O)C(=O)/C=C\C[C@H](C)OC2=O
B: FC(F)(F)c1ccc(-c2ccc(Oc3cncc4sc(-c5nn[nH]n5)cc34)cc2)cc1
*Q* Please indicate which entry, A or B , has the lower recorded residual activity value. Respond with the label that goes with your answer.
*A* B
(B: 18%, A: 101%)

----------
Biological target: CAMKK2 (human)
Assay: radiometric filter-binding kinase assay
Conditions: compound 1.0 µM
measure: residual activity (%)

*Q* Complete the entry with residual activity for O=C(Nc1ccccc1-c1cn2c(CN3CCNCC3)csc2n1)c1cnc2ccccc2n1
*A* 83

*Q* Complete the entry with residual activity for Cc1nc(-c2ccc(OCC(C)C)c(C#N)c2)sc1C(=O)O
*A* 92

*Q* Complete the entry with residual activity for O=C1NC(=S)N[C@@H]1Cc1c[nH]c2ccccc12
*A* 79

*Q* Complete the entry with residual activity for O=C(NOCC(O)CO)c1ccc(F)c(F)c1Nc1ccc(I)cc1Cl (stereo not given)
*A* 108

*Q* Complete the entry with residual activity for CC1=C(CO)C(=O)O[C@@H]([C@@H](C)[C@H]2CC[C@H]3[C@@H]4C[C@H]5O[C@]56[C@@H](O)C=CC(=O)[C@]6(C)C4CC[C@]23C)C1 (stereo not given in full)
*A* 115

*Q* Complete the entry with residual activity for COc1ccc2c(c1)c1c3c(c4c5ccccc5n(C)c4c1n2CC(O)CN(C)C)C(=O)NC3=O (stereo not given)
*A* 68

*Q* Complete the entry with residual activity for CN1C(=O)[C@@H](Cc2c[nH]c3ccccc23)NC1=S
*A* 91

*Q* Complete the entry with residual activity for O=C(N[C@@H](COc1ccc2[nH]c(=O)[nH]c2c1)c1ccccc1)c1cccn(Cc2ccc(F)c(F)c2)c1=O
*A* 104

*Q* Complete the entry with residual activity for NC1(c2ccc(-c3nc4ccn5c(=O)[nH]nc5c4cc3-c3ccccc3)cc2)CCC1
*A* 99

*Q* Complete the entry with residual activity for NS(=O)(=O)OC[C@@H]1C[C@@H](n2ccc3c(N[C@H]4CCc5ccccc54)ncnc32)C[C@@H]1O
*A* 96

----------
Target: MAPK12 (human) (UniProt P53778)
Sequence (P53778 whole entry, looked up): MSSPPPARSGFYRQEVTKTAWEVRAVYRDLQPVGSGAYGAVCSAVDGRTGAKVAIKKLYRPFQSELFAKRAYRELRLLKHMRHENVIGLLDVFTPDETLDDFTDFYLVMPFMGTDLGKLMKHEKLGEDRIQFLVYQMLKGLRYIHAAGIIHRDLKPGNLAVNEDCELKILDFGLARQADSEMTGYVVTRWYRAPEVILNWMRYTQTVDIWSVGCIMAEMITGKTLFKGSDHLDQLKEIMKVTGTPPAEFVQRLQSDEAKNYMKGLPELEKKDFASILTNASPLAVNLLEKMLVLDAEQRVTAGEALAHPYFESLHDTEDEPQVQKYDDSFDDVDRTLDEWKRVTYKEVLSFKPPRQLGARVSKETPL
Assay: radiometric filter-binding kinase assay
Conditions: compound 1.0 µM
measure: residual activity (%)

*Q* Complete the entry with residual activity for Cc1ccc(Sc2cnc(Nc3cccc(Br)n3)s2)cc1C(=O)N1CCN(C(=O)CN)CC1
*A* 80

*Q* Complete the entry with residual activity for CCCC(CCC)C(=O)O
*A* 93

*Q* Complete the entry with residual activity for O=C(O)c1ccc(-c2c[nH]c3ncc(-c4ccccc4)cc23)cc1C1CCCC1
*A* 104

*Q* Complete the entry with residual activity for Cc1nc(-c2ccc(OCC(C)C)c(C#N)c2)sc1C(=O)O
*A* 84

*Q* Complete the entry with residual activity for NC(=O)c1ccc(-c2ccc(Oc3cncc4sc(-c5nn[nH]n5)cc34)cc2)cc1
*A* 86

*Q* Complete the entry with residual activity for O=C(NOC[C@H](O)CO)c1ccc(F)c(F)c1Nc1ccc(I)cc1Cl
*A* 91

*Q* Complete the entry with residual activity for O=C(O)c1cc(N=Nc2ccc(S(=O)(=O)Nc3ccccn3)cc2)ccc1O
*A* 97

*Q* Complete the entry with residual activity for Oc1ccc(/C=C/c2cc(O)cc(O)c2)cc1
*A* 106

*Q* Complete the entry with residual activity for NC(=O)c1c(NC(=O)C2CC2)sc2c1CCCC2
*A* 93

*Q* Complete the entry with residual activity for CCc1cncnc1N1CCN(Cc2nc3cc(C(F)(F)F)ccc3[nH]2)CC1
*A* 102

P: c1ccc2c(-c3cnn4cc(-c5ccc(N6CCNCC6)cc5)cnc34)ccnc2c1
Q: Cn1nc(Nc2ccc(F)cc2)c2c(N)ncnc21
*Q* From the recorded data, which exceeds the other in residual activity: P or Q ? Respond with the label that goes with your answer.
*A* Q

----------
Target: MARK3 (human) (UniProt P27448)
Sequence (P27448 whole entry, looked up): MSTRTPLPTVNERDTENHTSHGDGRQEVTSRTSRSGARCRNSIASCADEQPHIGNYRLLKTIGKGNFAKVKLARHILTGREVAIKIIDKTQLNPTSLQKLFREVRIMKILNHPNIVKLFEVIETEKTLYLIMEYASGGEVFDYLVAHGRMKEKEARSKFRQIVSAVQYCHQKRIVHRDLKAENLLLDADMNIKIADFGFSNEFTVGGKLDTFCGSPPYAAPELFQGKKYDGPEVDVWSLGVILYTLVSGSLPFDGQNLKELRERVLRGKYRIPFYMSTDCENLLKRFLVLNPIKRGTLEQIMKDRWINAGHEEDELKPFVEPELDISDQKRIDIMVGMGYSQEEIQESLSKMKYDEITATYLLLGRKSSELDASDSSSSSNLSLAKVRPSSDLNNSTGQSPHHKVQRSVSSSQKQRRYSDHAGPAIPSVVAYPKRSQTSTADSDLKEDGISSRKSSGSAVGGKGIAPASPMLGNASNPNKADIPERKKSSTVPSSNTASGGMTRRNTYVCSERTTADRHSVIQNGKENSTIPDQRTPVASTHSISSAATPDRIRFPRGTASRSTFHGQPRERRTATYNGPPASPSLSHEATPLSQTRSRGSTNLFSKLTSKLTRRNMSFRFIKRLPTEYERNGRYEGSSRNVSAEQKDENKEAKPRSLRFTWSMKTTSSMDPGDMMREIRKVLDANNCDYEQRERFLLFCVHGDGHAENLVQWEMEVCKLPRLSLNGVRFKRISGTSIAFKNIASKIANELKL
Experiment: radiometric filter-binding kinase assay
Settings: compound 1.0 µM
measure: residual activity (%)

*Q* Complete the entry with residual activity for C=CC(=O)N1CCC[C@@H](n2nc(-c3ccc(Oc4ccccc4)cc3)c3c(N)ncnc32)C1
*A* 94

*Q* Complete the entry with residual activity for NC(=O)c1cc2c(-c3cccc(-c4ccccc4)c3)cnc(N)c2s1
*A* 69

*Q* Complete the entry with residual activity for Cc1cccc(-c2nn(C(=S)Nc3ccccc3)cc2-c2ccnc3ccccc23)n1
*A* 98

*Q* Complete the entry with residual activity for C[C@H]1CCCC(=O)CCC/C=C/c2cc(O)cc(O)c2C(=O)O1
*A* 102

*Q* Complete the entry with residual activity for C=C1C(=O)OC2C1CC/C(C)=C/CCC1(C)OC21 (stereo not drawn)
*A* 123

P: CNc1nc(-c2ccc3c(N)n[nH]c3c2)cc(N2C[C@@H](C(=O)NC3CCCCC3)CC[C@H]2C)n1
Q: NC(=O)c1cc(-c2ccnc(NC3CCCCC3)c2)nc(N2CCNCC2)c1
*Q* Please indicate which entry, P or Q , has the lower recorded residual activity value. Respond with the label that goes with your answer.
*A* Q

----------
Molecular target: MAPK9 (human) (UniProt P45984)
Sequence (P45984 whole entry, looked up): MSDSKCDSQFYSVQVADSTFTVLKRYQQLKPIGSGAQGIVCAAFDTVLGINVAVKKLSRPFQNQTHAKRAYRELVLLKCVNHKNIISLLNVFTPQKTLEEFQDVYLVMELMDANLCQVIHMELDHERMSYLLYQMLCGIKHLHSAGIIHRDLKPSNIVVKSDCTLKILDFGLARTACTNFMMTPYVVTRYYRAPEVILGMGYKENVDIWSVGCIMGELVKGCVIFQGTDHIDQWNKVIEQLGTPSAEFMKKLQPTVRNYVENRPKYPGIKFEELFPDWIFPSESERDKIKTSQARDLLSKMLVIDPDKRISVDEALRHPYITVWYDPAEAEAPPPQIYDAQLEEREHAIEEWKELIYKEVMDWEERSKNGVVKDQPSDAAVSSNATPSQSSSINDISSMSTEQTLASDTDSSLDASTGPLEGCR
Assay: radiometric filter-binding kinase assay
Settings: compound 10.0 µM
measure: residual activity (%)

*Q* Complete the entry with residual activity for NS(=O)(=O)OC[C@@H]1C[C@@H](n2ccc3c(N[C@H]4CCc5ccccc54)ncnc32)C[C@@H]1O
*A* 88

*Q* Complete the entry with residual activity for O=C(NOCC(O)CO)c1ccc(F)c(F)c1Nc1ccc(I)cc1Cl (stereo not drawn)
*A* 92

*Q* Complete the entry with residual activity for COc1cc2ncn(-c3cc(OCc4ccccc4S(C)(=O)=O)c(C#N)s3)c2cc1OC
*A* 90

*Q* Complete the entry with residual activity for CCCCCc1ccc(/C=C/[C@H](O)[C@@H](CO)NC)cc1
*A* 88

*Q* Complete the entry with residual activity for CCNc1nc(Nc2cc(F)c(C(=O)N3CCOCC3)cc2OC)ncc1C(F)(F)F
*A* 89

*Q* Complete the entry with residual activity for CN1C(=O)[C@@H](Cc2c[nH]c3ccccc23)NC1=S
*A* 88

*Q* Complete the entry with residual activity for O=C(Nc1ccccc1-c1cn2c(CN3CCNCC3)csc2n1)c1cnc2ccccc2n1
*A* 87

*Q* Complete the entry with residual activity for CNc1nc(-c2ccc3c(N)n[nH]c3c2)cc(N2C[C@@H](C(=O)NC3CCCCC3)CC[C@H]2C)n1
*A* 114

*Q* Complete the entry with residual activity for NCC(=O)Nc1ccc(-n2nc(C(F)(F)F)cc2-c2ccc3c(ccc4ccccc43)c2)cc1
*A* 96

*Q* Complete the entry with residual activity for O=C(N[C@@H](COc1ccc2[nH]c(=O)[nH]c2c1)c1ccccc1)c1cccn(Cc2ccc(F)c(F)c2)c1=O
*A* 95

*Q* Complete the entry with residual activity for COC(=O)/C=C/C(=O)OC
*A* 90

*Q* Complete the entry with residual activity for Cc1cc(SCc2sc(-c3ccc(C(F)(F)F)cc3)nc2C)ccc1OCC(=O)O
*A* 79

*Q* Complete the entry with residual activity for CC(C)(C#N)c1ccc(N2C(=O)OCc3cnc4ccc(-c5cnc6ccccc6c5)cc4c32)cc1
*A* 97
